Below, each of the compounds is paired with its reported cell viability value.
- Test system: K562
- assay.text: cell viability relative to vehicle control; higher = less cytotoxic;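 further: after 48 h exposure read by CellTiter-Glo luminescence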
- conditions: 10 µM; SRSF2 genotype: SRSF2 wt/wt
Where a name gives a salt, the structure may show the parent alone.
Form entry: value (%) — number only.

**Q:** Give cell viability only, for O=C(O)Cc1cccc2ccccc12 [1-Naphthaleneacetic acid] , using K562 data.
**A:** 98.1

**Q:** Give cell viability only, for `COc1cc2ncnc(Oc3cccc(NC(=O)Nc4cc(C(C)(C)C(F)(F)F)on4)c3)c2cc1OC` , using K562 data.
**A:** 24.8

**Q:** Give cell viability only, for CN1CC2c3ccccc3Oc3ccc(Cl)cc3C2C1 (stereo not drawn) [Asenapine maleate] , using K562 data.
**A:** 88.2

**Q:** Give cell viability only, for CC1(C)CCC(CN2CCN(c3ccc(C(=O)NS(=O)(=O)c4ccc(NCC5CCOCC5)c([N+](=O)[O-])c4)c(Oc4cnc5[nH]ccc5c4)c3)CC2)=C(c2ccc(Cl)cc2)C1 [Venetoclax (ABT-199, GDC-0199)] , using K562 data.
**A:** 76

**Q:** Give cell viability only, for CCCCCCCCCCCCCCCCCCCCCCCCCCCCO [1-Octacosanol] , using K562 data.
**A:** 98.7

**Q:** Give cell viability only, for `C=CC(=O)Nc1cccc(C)c1Nc1ncc2cc(-c3c(Cl)c(OC)cc(OC)c3Cl)ccc2n1` , using K562 data.
**A:** 35.1

**Q:** Give cell viability only, for `O=C(O)Cn1nnc(-c2cc(N3CCC(Oc4cc(F)ccc4Br)CC3)no2)n1` , using K562 data.
**A:** 110

**Q:** Give cell viability only, for O=c1ccn(C2OC(CO)C(O)C2O)c(=O)[nH]1 (stereo not drawn) , using K562 data.
**A:** 99.6

**Q:** Give cell viability only, for O=C1O[C@H]2[C@@H]3OC(=O)c4cc(O)c(O)c(O)c4-c4c(cc(O)c(O)c4O)C(=O)OC[C@H]2O[C@@H](OC(=O)c2cc(O)c(O)c(O)c2)[C@@H]3OC(=O)c2cc(O)c(O)c3c2[C@@H]2C1=CC(=O)[C@](O)(O3)C2(O)O [Geraniin] , using K562 data.
**A:** 103

**Q:** Give cell viability only, for O=c1cc(-c2ccc(O)c(O)c2)oc2c([C@@H]3O[C@H](CO)[C@@H](O)[C@H](O)[C@H]3O)c(O)cc(O)c12 [Orientin] , using K562 data.
**A:** 101

**Q:** Give cell viability only, for CCOC(=O)C1=C(C)NC(C)=C(C(=O)OCC)C1 [Diludine] , using K562 data.
**A:** 104

**Q:** Give cell viability only, for CCC[C@H](NC(=O)/C(C#N)=C/c1cccc(Br)n1)c1ccccc1 [Degrasyn (WP1130)] , using K562 data.
**A:** 9.59

**Q:** Give cell viability only, for `COc1cn(-c2ccc(-n3cccn3)cc2F)nc(-c2ccnn2-c2ccccc2)c1=O` , using K562 data.
**A:** 99.9

###

- System: MARIMO
- assay.text: cell viability relative to vehicle control; higher = less cytotoxic
- conditions: 10 µM; SRSF2 genotype: SRSF2 wt/wt
Structures can show the parent of a compound that is named as a salt.
Below, each of the compounds is paired with its reported cell viability value.
Form entry: value (%) — number only.

C#CCN[C@@H]1CCc2ccccc21 [Rasagiline mesylate]	106
COc1nc(C)nc(Cl)c1NC1=NCCN1 [Moxonidine]	95.5
C=C[C@@]1(C)CC(=O)[C@]2(O)[C@@]3(C)[C@@H](O)CCC(C)(C)[C@@H]3[C@H](O)[C@H](OC(C)=O)[C@@]2(C)O1 [Forskolin]	88.6
CCCN[C@H]1CCc2nc(N)sc2C1 [Pramipexole (Mirapex)]	83.9
O=C(NCc1cccc(O)c1)Nc1nc(-c2ccncc2)cs1	85.8

**Q:** Give cell viability only, for `COc1cc2ncnc(Nc3ccc(Oc4ccccc4)cc3C)c2cc1OC` , using MARIMO data.
**A:** 66

**Q:** Give cell viability only, for OC[C@H]1O[C@@H](n2cnc3c(O)nc(O)nc32)[C@H](O)[C@@H]1O [Xanthosine] , using MARIMO data.
**A:** 101

**Q:** Give cell viability only, for CCC(C)n1ncn(-c2ccc(N3CCN(c4ccc(OCC5COC(Cn6cncn6)(c6ccc(Cl)cc6Cl)O5)cc4)CC3)cc2)c1=O (stereo not drawn) [Itraconazole (Sporanox)] , using MARIMO data.
**A:** 55

###

Below, each of the compounds is paired with its reported cell viability value.
- System: OCI-AML2
- assay.text: cell viability relative to vehicle control; higher = less cytotoxic
- conditions: 10 µM; SRSF2 genotype: wt/wt
Where a name gives a salt, the structure may show the parent alone.
Form entry: value (%) — number only.

Nc1ccn([C@@H]2O[C@H](CO)[C@@H](O)[C@@H]2O)c(=O)n1 [Cytarabine hydrochloride]	8.04
C[C@@H]1O[C@@H]1P(=O)(O)O	98.6
COc1ccc(COc2ccc(CC#N)cc2)cc1	82.9

**Q:** Give cell viability only, for CCN(CC)CC#CCOC(=O)C(O)(c1ccccc1)C1CCCCC1 (stereo not given) [Oxybutynin (Ditropan)] , using OCI-AML2 data.
**A:** 87

**Q:** Give cell viability only, for `CC(C)N(CCC(=O)c1ccc2ccccc2c1)Cc1ccccc1` , using OCI-AML2 data.
**A:** 0.4

**Q:** Give cell viability only, for `Cc1cc(Nc2cc(N3CCN(C)CC3)nc(/C=C/c3ccccc3)n2)n[nH]1` , using OCI-AML2 data.
**A:** 14.9

**Q:** Give cell viability only, for `Cc1ccc(C(C)C)c(O)c1` , using OCI-AML2 data.
**A:** 101

**Q:** Give cell viability only, for `C/C=C(/C)C(=O)O[C@H]1c2cc(OC)c(OC)c(OC)c2-c2c(cc3c(c2OC)OCO3)C[C@H](C)[C@]1(C)O` , using OCI-AML2 data.
**A:** 97

**Q:** Give cell viability only, for `CCc1ccc(-c2nc(CSCC(=O)NCCc3ccccc3)c(C)o2)cc1` , using OCI-AML2 data.
**A:** 91.2

**Q:** Give cell viability only, for O=S(=O)(O)c1cc(O)ccc1O [Calcium Dobesilate] , using OCI-AML2 data.
**A:** 103

###

- System: OCI-AML2
- assay.text: cell viability relative to vehicle control; higher = less cytotoxic
- conditions: 10 µM; SRSF2 genotype: P95H/wt
Below, each of the molecules is paired with its reported cell viability value.
Form entry: value (%) — number only.

O=C(Nc1cccc2c(=O)cc(-c3nnn[nH]3)oc12)c1ccc(OCCCCc2ccccc2)cc1	105
O=c1c(-c2ccc(O[C@@H]3O[C@H](CO)[C@@H](O)[C@H](O)[C@H]3O)cc2)coc2cc(O)cc(O)c12 [Sophoricoside]	109

**Q:** Look up and report measured cell viability for this entry: CC(C)OC(=O)C1=CN(C(=O)c2ccc(F)c(F)c2)CC(C)(C)c2c1[nH]c1ccccc21 [Turofexorate Isopropyl (XL335)]
**A:** 92.7

###

Below, each of the compounds is paired with its reported cell viability value.
- System: MARIMO
- assay.text: cell viability relative to vehicle control; higher = less cytotoxic
- conditions: 10 µM; SRSF2 genotype: SRSF2 P95H/wt
Form entry: value (%) — number only.

CC(=O)NS(=O)(=O)c1ccc(N)cc1 [Sulfacetamide]	90.8
CCOc1ccn(-c2ccc(F)cc2)c(=O)c1C(=O)Nc1ccc(Oc2ccnc(N)c2Cl)c(F)c1	69.1

**Q:** Look up and report measured cell viability for this entry: `CCCS(=O)(=O)Nc1ccc(F)c(C(=O)c2c[nH]c3ncc(Cl)cc23)c1F`
**A:** 72.2

**Q:** Look up and report measured cell viability for this entry: CCCC(=O)OCOC(=O)C1=C(C)NC(C)=C(C(=O)OC)C1c1cccc(Cl)c1Cl (centres undefined) [Clevidipine Butyrate]
**A:** 100

**Q:** Look up and report measured cell viability for this entry: `O=S(=O)(O)c1ccc2cc(N=Nc3cc(S(=O)(=O)O)c4cccnc4c3O)ccc2c1`
**A:** 93.5

**Q:** Look up and report measured cell viability for this entry: `CC(C)(CNC(=O)c1cccc(-c2noc(C(F)(F)F)n2)c1)c1coc(-c2ccccc2)n1`
**A:** 82.1

**Q:** Look up and report measured cell viability for this entry: `Cc1ccc(C(C)C)cc1O`
**A:** 95.5

**Q:** Look up and report measured cell viability for this entry: `C=C1C(=O)[C@]23[C@H](O)[C@H]1CC[C@H]2[C@@]12CO[C@]3(O)[C@@H](O)[C@@H]1C(C)(C)CC[C@@H]2O`
**A:** 37.5

**Q:** Look up and report measured cell viability for this entry: `CC(=O)O[C@H]1CC(=O)OC(C)(C)[C@@H]2CC(=O)[C@]3(C)[C@H](CC[C@@]4(C)[C@@H](c5ccoc5)OC(=O)[C@H]5O[C@]543)[C@@]12C`
**A:** 87.1
